test system: P388 leukemia ip, CD2F1 mice, survival T/C; assay: NCI In Vivo Anticancer Drug Screen. Data for tumor model P388 Leukemia (intraperitoneal) in CD2F1 (CDF1) mice; settings: endpoint: median survival time; dose: 25.0 mg/kg/injection; schedule: Q04DX002 (ip); vehicle: saline with Tween-80
Inconclusive results and toxic doses are left out. Rule for the calls: active = survival T/C of 150% or more; inactive = T/C below 125% in these data.
Outcomes: true (1) (active), false (0) (inactive)

                                   compound  class_assignment
0  O=C(NC12CC3CC(CC(C3)C1)C2)OCCN1CCN(CCCN2c3ccccc3Sc3ccc(C(F)(F)F)cc32)CC1         false (0)
1  CC1CCCN2C(=O)CN(N3CCOCC3)CC(=O)N12 (centres undefined)         false (0)
2  [Cl][Pd][Cl].[NH-]C1CCCC2CCC[N-]C12 (centres undefined)         false (0)
3  CNCCC(Oc1ccc(C(F)(F)F)cc1)c1ccccc1 (centres undefined)         false (0)
4  COc1ccc(/C=C2\C(=O)C(c3ccccc3)N(c3ccccc3)C2=O)cc1 (centres undefined)         false (0)
5            C[C@H]1CCC2=C(C1)NC(N)=NC2(C)C         false (0)
6  C=C1C(=O)O[C@@H]2/C=C(/C)[C@@H](OC(C)=O)C/C=C(\C)C(O)[C@@H](OC(=O)/C(C)=C\C)C12 (some centres undefined)         false (0)
7               CN1C(=O)C(N=O)C(=O)N(C)C1=S         false (0)
8         O=C(O)CC(=O)O.[NH-]CC[NH-].[Pt+2]          true (1)

---

tested on: P388 leukemia ip, CD2F1 mice, survival T/C; assay: NCI In Vivo Anticancer Drug Screen. Data for tumor model P388 Leukemia (intraperitoneal) in CD2F1 (CDF1) mice; conditions: endpoint: median survival time; dose: 100.0 mg/kg/injection; schedule: Q01DX009 (ip); vehicle: saline; higher = longer survival
Inconclusive results and toxic doses are left out.
ATTRIBUTE_MEASURED: T/C

                                   molecule  attribute_measured          measured
0  CC(C)=CC1C(C(=O)OCc2ccc3c(c2)OCO3)C1(C)C (configuration not stated)                 T/C   93 % of control
1    CC(N)C(=O)O (configuration not stated)                 T/C  105 % of control
2  CC(=O)OC1OC(CS[As](C)C)C(OC(C)=O)C(OC(C)=O)C1OC(C)=O (configuration not stated)                 T/C  106 % of control
3         NS(=O)(=O)c1cccnc1Nc1cccc(Cl)c1Cl                 T/C  100 % of control
4  CC(O)C(N)C(=O)O (configuration not stated)                 T/C  105 % of control
5  COc1cc(CCNC(=O)CCN2C(=O)CCC2=O)cc(OC)c1OC                 T/C  100 % of control
6                         CCCNC(=S)Nc1ncco1                 T/C   96 % of control

---

tested on: P388 leukemia ip, CD2F1 mice, survival T/C; experiment: NCI In Vivo Anticancer Drug Screen. Data for tumor model P388 Leukemia (intraperitoneal) in CD2F1 (CDF1) mice; conditions: endpoint: median survival time; dose: 100.0 mg/kg/injection; schedule: Q01DX005 (ip); vehicle: Klucel (hydroxypropylcellulose) (HPC); higher = longer survival
Toxic doses and inconclusive results are not listed. Peptide text beside a SMILES is read from it. * marks the point of attachment. OtBu = CC(C)(C)O*
The entries below come with measured T/C values attached.

COMPOUND	T/C
CC(C)c1[nH]c2ccccc2c1Cn1ccnc1	114 % of control
Cc1nc2ncn(-c3ccccc3)c2c(=O)n1CC(C)C	101 % of control
CC(C)CC(NC(=O)C1CCCN1)C(=O)NC(CC(C)C)C(=O)OC(C)(C)C (stereo not drawn) (H-Pro-Leu-Leu-OtBu; configuration not given here)	99 % of control
Cc1nc(N)c2[nH]cnc2n1	100 % of control
COC1=C(C)[C@@H]2CC(=O)O[C@@H]3C[C@H]4CCCC[C@]4(C)[C@@H](C1=O)[C@@]32C	92 % of control

---

test system: P388 leukemia ip, CD2F1 mice, survival T/C; assay: NCI In Vivo Anticancer Drug Screen. Data for tumor model P388 Leukemia (intraperitoneal) in CD2F1 (CDF1) mice; settings: endpoint: median survival time; dose: 50.0 mg/kg/injection; schedule: Q01DX005 (ip); vehicle: saline with Tween-80; higher = longer survival
Inconclusive results and toxic doses are left out.
The entries below come with measured T/C values attached.
ATTRIBUTE_MEASURED: T/C

>>> df
                                    compound          measured
 0    O=C1Nc2ccccc2/C1=N/N(c1ccccc1)c1ccccc1   95 % of control
 1                    Cc1[nH]nc2c1NC(=O)OCC2  101 % of control
 2    O=C1C=C(c2ccccc2)S(=O)(=O)c2c(O)cccc21  121 % of control
 3               S=c1ncnc2cc3[nH][nH]cc3cc12   90 % of control
 4            O=S1(=O)N=C(N2CCOCC2)c2ccccc21  101 % of control
 5  S=C1N(c2ccc(Br)cc2)C2=Nc3ccccc3SC(=C2N=Nc2ccccc2Cl)N1c1ccc(Cl)cc1   97 % of control
 6      Cc1cc(NCCCCN2CCOCC2)nc2ccc3ccccc3c12  101 % of control
 7  CC(=O)OC1SCCn2c1nc1ccccc1c2=O (stereo not given)  106 % of control
 8  OCC(O)C1OC(c2ccco2)OC(CO)C1O (stereo not given)  102 % of control
 9  C/C(N=NC(=S)N1CCN(c2ccccc2)CC1)=C1\C=CC=CN1O  103 % of control
10     C/C(=N\NC(=S)N1CCCCCC1)c1cccc2cccnc12  107 % of control
11  C/C(N=NC(=S)N1CCCC(C)C1)=C1\C=CC=CN1O (stereo not given)  101 % of control
12            Nc1ccc(O)c2c1C(=O)c1ccccc1C2=O   93 % of control
13               Cc1cc2ccccc2c[n+]1CCCCCCCCI  108 % of control
14  Cc1cccc(N=C(c2ccccc2)C2C(=O)c3ccccc3C2=O)c1   94 % of control
15  COc1ccc(C(=O)NCc2cccnc2)cc1C(=O)NCc1cccnc1   94 % of control
16  Cc1ccc2oc(C(=O)Nc3nnc(-c4ccccc4)s3)cc(=O)c2c1   96 % of control
17       COc1ccc(Cc2cc3c(cc2OC(C)=O)OCO3)cc1  100 % of control
18  CN(C)c1ccc2nc3ccc(=[N+](C)C)c([N+](=O)[O-])c-3sc2c1  116 % of control
19  O=C(NC(=O)c1cc2cc(Cl)cc(Cl)c2oc1=O)Oc1ccccc1   89 % of control
20   CCS(=O)C(F)(F)C(F)Cl (stereo not given)   97 % of control
21            Oc1ccc(O)c2c(O)c3ccccc3c(O)c12  102 % of control
22             COc1ccc2ncc(COC(C)=O)c(C)c2c1   99 % of control
23  Oc1cccc([C@@]23CCCC[C@H]2CN(CC2CC2)CC3)c1   90 % of control
24  CC1N(N2C(=O)CS(=O)(=O)C2C)C(=O)CS1(=O)=O (stereo not given)   90 % of control

---

tested on: P388 leukemia ip, CD2F1 mice, survival T/C; test: NCI In Vivo Anticancer Drug Screen. Data for tumor model P388 Leukemia (intraperitoneal) in CD2F1 (CDF1) mice; conditions: endpoint: median survival time; dose: 3.13 mg/kg/injection; schedule: Q01DX009 (ip); vehicle: water
Inconclusive results and toxic doses are left out. How the source made its calls: active means survival T/C of 150% or more; inactive means T/C below 125% in these data.
Outcomes: 1 = active, -1 = inactive

>>> print(df.to_string())
                                   compound  class_assignment
0  COc1cccc2c1C(=O)c1c(O)c3c(c(O)c1C2=O)CC(O)(C(C)=O)CC3OC1CC(N)C(O)C(C)O1 (stereo not given)                 1
1  COc1cccc2c1C(=O)c1c(O)c3c(c(O)c1C2=O)C[C@@](O)(C(=O)O)C[C@@H]3OC1CC(N)C(O)C(C)O1 (stereo not given in full)                -1
2  O=C1C2C(C(=O)N1c1ccc(OCc3ccccc3)cc1)C1c3ccccc3C2C2CCCCN21 (stereo not given)                -1
3  O=C1c2ccccc2C(=O)N1C[P+](c1ccccc1)(c1ccccc1)c1ccccc1                -1
4     COC(C)(C)O/N=C(\C[n+]1ccccc1)c1ccccc1                -1
